systemTested: IGF-1R on L6 cells
assayText: cell-based or functional assay
experimentalEndpoint: IC50, down regulation of 3 nM IGF-1 stimulation to basal level, IRS-1, L6 cells (nM)
Quick note: give the figure in nM, leave out the unit.

binder: QFYGCLLDLSLGVPSFGWRRRCITA [F138]
readoutNumber: 300

With those in mind, consider the next binder.
Field IC50, down regulation of 3 nM IGF-1 stimulation to basal level, IRS-1, L6 cells (entry DFYGCLLDLSLGVPSLGWRRRCITA [F429] ) reads 40

Values compiled from patent US20110039779A1.
